The measurements presented in this section are drawn from PubChem BioAssay (NCI).

# Lookup of reported TGI keyed by entry
Tested on: SW-620 colon
Test: NCI tumour cell line growth inhibition, 48 h
measurement_label: TGI

N#C/C(=C\c1ccc(Br)cc1)c1nc(-c2cc3ccccc3oc2=O)cs1
> 50 µM
CC(C)(c1ccc(OC#N)cc1)c1ccc(OC#N)cc1
> 100 µM
Cc1ccc(/C=C2\CCCC\C2=N\O)cc1
> 100 µM
O=C(n1c(=O)n(-c2ccc(Cl)cc2)c(=O)n1C(=O)C(Cl)(Cl)Cl)C(Cl)(Cl)Cl
> 100 µM
O=C1c2c(nc3ccccc3c2-c2ccccc2)CN1Nc1ccccc1
> 100 µM
O=Cc1ccc(-c2cccc([N+](=O)[O-])c2)s1
> 100 µM
Cc1csc2nc3[nH]ncc3c(=O)n12
> 100 µM
C=CC(=O)Nc1cccc(C)c1Nc1ncc2cc(-c3c(Cl)c(OC)cc(OC)c3Cl)ccc2n1
39.5 µM
O=C(CN1CCOCC1)Nc1ccc2c(c1)C1Oc3ccccc3CC1CO2 (stereo unspecified)
> 100 µM
CC12CC3CC(C1)CC(N=[N+]=[N-])(C3)C2
> 100 µM
Cc1ccc(/C(O)=C/c2nc3ccccc3[nH]c2=O)c(C)c1
> 100 µM
Nc1nc(Cl)cc(NCCCCCCCCCCCCNc2cc(Cl)nc(N)n2)n1
> 100 µM
CC(=O)OC[C@@H](OC(C)=O)[C@@H](OC(C)=O)[C@H]1OC[C@@H]2C[C@H]([C@H]1OC(C)=O)N(Cc1ccccc1)O2
> 100 µM
COc1cc(C(=O)CC2(O)C(=O)Nc3c(Cl)cc(Cl)cc32)ccc1O (stereo unspecified)
> 100 µM
[O-]c1c[n+](CC[n+]2cc([O-])on2)no1
> 100 µM
CC(C)C[C@@H]1NC(=O)[C@@H]2CCCN2C(=O)[C@@H]2CCCN2C(=O)[C@H](CC(C)C)NC(=O)[C@H](CO)NC(=O)[C@H](CCCCN)NC(=O)[C@H]([C@H](C)O)NC(=O)[C@@H]2CCCC[C@@H](NC1=O)C(=O)N[C@@H](Cc1ccccc1)C(=O)N1CCC[C@H]1C(=O)N[C@@H](CC(=O)O)C(=O)NCC(=O)N[C@@H](CCCN=C(N)N)C(=O)N2
> 50 µM
Nc1cccc(C#Cc2cccc(C#Cc3cccc(N)n3)n2)n1
> 100 µM
COc1ccc([C@H](NC(=O)c2ccccc2)[C@@H](O)C(=O)O[C@H]2C[C@@]3(O)C(OC(=O)c4ccccc4)C4[C@](C)(C(=O)[C@H](OC(C)=O)C(=C2C)C3(C)C)[C@@H](O)C[C@H]2OC[C@@]42OC(C)=O)cc1 (stereo partly specified)
> 10 µM
COC(=O)[C@@]1(O)C[C@H]2O[C@]1(C)n1c3ccccc3c3c4c(c5c6ccccc6n2c5c31)C(=O)NC4
3.11 µM
O=C(/C=C1/NC(=O)CS1)Nc1ccccc1
> 100 µM
COC(=O)/C(=C\c1cn(C(C)=O)c2ccccc12)P(=O)(OC)OC
40.7 µM
COc1ccc(/C=C2\CN(C)CC3C2=NC(=S)NC3c2ccc(OC)cc2)cc1 (stereo unspecified)
> 100 µM
CC[C@](C)(O)C(=O)O[C@H]1C(=O)O[C@@H]2C[C@H]3C(C)=C[C@H](O)[C@@H](O)[C@]3(C)[C@H]3[C@@]4(O)OC[C@]32[C@@H]1[C@@H](C)[C@H]4O
61.7 µM
COc1cc(/C=C2\CC3C4CC[C@H]5C[C@@H](O)CC[C@]5(C)C4CC[C@]3(C)C2=O)cc(OC)c1OC (stereo partly specified)
> 100 µM
CCSC(=O)/C=C1\CN(C(=O)OC(C)(C)C)C1C(=O)OC(C)(C)C (stereo unspecified)
4.1 µM
Nc1ccccc1OCc1cc(=O)c(OCc2ccccc2)co1
> 100 µM
